The reported numbers originate from the supplement of paper PMC8728848.

Target: Neu5Ac(a2-6)Gal(b1-4)GlcNAc(b1-2)Man
Assay: glycan array binding signal (z-score within array); higher = stronger binding
Conditions: glycan notation: IUPAC condensed, linker removed
This excerpt belongs to a sample that is enriched for the strongest signals.
MEASUREMENT_KIND: glycan array binding signal (z-score)

BINDER	MEASUREMENT_KIND	OBSERVED_MEASUREMENT
DC-ASGPR L+GEE (Homo sapiens) (protein) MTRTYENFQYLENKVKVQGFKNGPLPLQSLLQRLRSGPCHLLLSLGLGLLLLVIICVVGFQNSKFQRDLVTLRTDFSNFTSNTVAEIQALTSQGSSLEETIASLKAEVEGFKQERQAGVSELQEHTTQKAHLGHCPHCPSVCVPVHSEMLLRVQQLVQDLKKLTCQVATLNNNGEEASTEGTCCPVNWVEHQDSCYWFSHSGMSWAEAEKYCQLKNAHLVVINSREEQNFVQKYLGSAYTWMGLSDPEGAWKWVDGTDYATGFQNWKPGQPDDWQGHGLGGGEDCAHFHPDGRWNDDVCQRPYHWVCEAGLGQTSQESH	glycan array binding signal (z-score)	0.432
rCnSL-proB (Clitocybe nebularis) (protein) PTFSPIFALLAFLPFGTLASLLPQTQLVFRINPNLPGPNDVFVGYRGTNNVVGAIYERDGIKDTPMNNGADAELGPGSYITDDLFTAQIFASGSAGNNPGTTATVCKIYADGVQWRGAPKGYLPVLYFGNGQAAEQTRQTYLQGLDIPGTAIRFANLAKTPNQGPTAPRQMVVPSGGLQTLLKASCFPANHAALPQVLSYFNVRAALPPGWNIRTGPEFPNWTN	glycan array binding signal (z-score)	0.328
CM2 (Cordyceps militaris) (protein) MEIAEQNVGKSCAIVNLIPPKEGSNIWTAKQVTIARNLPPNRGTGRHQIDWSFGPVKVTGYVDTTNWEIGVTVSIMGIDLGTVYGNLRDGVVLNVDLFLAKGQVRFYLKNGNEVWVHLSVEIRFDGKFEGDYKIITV	glycan array binding signal (z-score)	2.54
ArathEULS3 TAP (Arabidopsis thaliana) (protein) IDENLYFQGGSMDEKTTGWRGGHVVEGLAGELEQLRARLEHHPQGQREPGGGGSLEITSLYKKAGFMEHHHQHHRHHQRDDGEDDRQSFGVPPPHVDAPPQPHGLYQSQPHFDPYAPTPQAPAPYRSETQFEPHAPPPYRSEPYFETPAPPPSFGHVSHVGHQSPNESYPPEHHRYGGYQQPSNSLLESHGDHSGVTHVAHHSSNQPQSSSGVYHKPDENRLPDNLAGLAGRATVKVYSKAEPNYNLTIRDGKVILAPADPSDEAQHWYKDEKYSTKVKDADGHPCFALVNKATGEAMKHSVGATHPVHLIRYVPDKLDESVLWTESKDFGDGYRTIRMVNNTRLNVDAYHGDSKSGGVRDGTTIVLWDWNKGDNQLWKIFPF	glycan array binding signal (z-score)	0.021
YASPKCFRYPNGVLACT [Odorranalectin (Odorrana grahami), B3TFE9_RANGR]	glycan array binding signal (z-score)	-0.092
DBA (Dolichos biflorus) (protein) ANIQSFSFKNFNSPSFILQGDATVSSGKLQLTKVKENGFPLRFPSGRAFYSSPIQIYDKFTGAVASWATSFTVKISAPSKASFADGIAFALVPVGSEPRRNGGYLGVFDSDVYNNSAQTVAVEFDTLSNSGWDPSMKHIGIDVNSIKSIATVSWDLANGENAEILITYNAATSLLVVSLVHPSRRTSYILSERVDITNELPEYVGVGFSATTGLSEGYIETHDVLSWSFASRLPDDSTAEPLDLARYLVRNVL	glycan array binding signal (z-score)	-0.127
XTP3-B-MRH1 (Homo sapiens), Q96DZ1 (protein) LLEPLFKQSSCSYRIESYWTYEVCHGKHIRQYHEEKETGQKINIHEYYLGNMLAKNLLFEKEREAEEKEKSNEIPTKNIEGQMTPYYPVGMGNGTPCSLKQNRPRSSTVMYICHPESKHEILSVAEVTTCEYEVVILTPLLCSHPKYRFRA	glycan array binding signal (z-score)	1.44
